Biological target: nucleotide-binding domain of GRP78 (GRP78-NBD)
Assay: Binding to GRP78-NBD Kd (μM)
Source text: Table printed on a drawing sheet, FIG. 5B Head of the field: Binding to GRP78-NBD Kd (μM) GRP78-NBD is shown in a to translucent surface model along with its cartoon trace. The Cys-Cys bond in compound 14 (SEQ ID NO: 14) is shown in sticks. The binding affinities are obtained by microscale thermophoresis-based cell free assay. […] Where the first naming reader finds the target: head: Binding to GRP78-NBD Kd (μM)
Positions of bridges follow the written chain, without caps; N, C: chain ends. Non-standard residues stand in square brackets, D forms with d. No end group written: not given here.
VALUE_KIND: Kd (µM)

EECRACAE (disulfide 3-6) [Compound 17] = 0.3
SKEACGGKCTEG ([dS][dK][dE][dA][dC]GG[dK][dC][dT][dE]G; disulfide 5-9) [Compound 12] = 6.2
GEECRACAEKT (disulfide 4-7) [Compound 5] = 3.21

(I) ETCKGCAE (disulfide 3-6) [Compound 19]
(II) EACARCEE ([dE][dA][dC][dA][dR][dC][dE][dE]; disulfide 3-6) [Compound 18]
input: Which gives the smaller Kd number: I or II ? Reply with the label of the item you choose.
output: II
(II: 1.23 µM, I: 14.3 µM)
